Assay: Plasma pharmacokinetics of lorlatinib at steady state (LC-MS/MS, non-compartmental analysis)
Format: in vivo, human
Conditions: human, in vivo, 115 mg/m2, Cohort A1, 115 mg/m2 per dose, C1D15, Median, N 6; read-out: AUC_TAU
reported.property: AUC (ng·h/mL)
# value in ng·h/mL; strip the unit string

Q: Report AUC, nothing else, for this molecule: "C[C@H]1Oc2cc(cnc2N)-c2c(nn(C)c2C#N)CN(C)C(=O)c2ccc(F)cc21"
A: 8570

---

Test: Plasma pharmacokinetics of lorlatinib at steady state (LC-MS/MS, non-compartmental analysis)
Assay type: in vivo, human
Conditions: human, plasma, oral, 95 mg/m2, Cohort B2, 95 mg/m2 per dose, C1D15, Median, N 2; read-out: Cmax
reported.property: Cmax (ng/mL)
// return numeric value only (unit: ng/mL, not printed)

Q: Consider the compound "C[C@H]1Oc2cc(cnc2N)-c2c(nn(C)c2C#N)CN(C)C(=O)c2ccc(F)cc21" and give its recorded Cmax.
A: 824

Data origin, for the record: paper PMC10202811
